So I've got a bunch of sequences here, and I need their switch fluorescence ratio values.
- System: ATP;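 note: ATP exposure 15 min at 22 °C before imaging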
- Experiment: switch fluorescence ratio, 500 uM ATP over buffer (Cy3 cluster intensity, sum of 5 cycles each) (fold (ratio)); higher = stronger signal-on switching upon ATP binding; sequences stand for … in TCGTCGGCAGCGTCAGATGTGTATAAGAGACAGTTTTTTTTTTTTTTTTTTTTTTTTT…TC
- Details: aptamer strand: ATP DNA aptamer (quencher-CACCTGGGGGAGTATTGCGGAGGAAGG + anchor), 100 nM annealed; ATP concentration: 500 uM
Answers are plain numbers.

Sample answers from the record:
Looking up GGGGCGTATG , I see its switch fluorescence ratio listed as 0.993

Looking up CCTATATAGA , I see its switch fluorescence ratio listed as 0.999

Looking up CACGGTCTAA , I see its switch fluorescence ratio listed as 1.03

Looking up GATTAGGGGA , I see its switch fluorescence ratio listed as 1.01

Looking up TTAGTGGGGC , I see its switch fluorescence ratio listed as 1.03

Looking up AAATTACGGG , I see its switch fluorescence ratio listed as 1.04

Looking up CAGCTAGGTG , I see its switch fluorescence ratio listed as 1.54

Looking up TTTAATGGGA , I see its switch fluorescence ratio listed as 1.03

Looking up AGGGCTTTGT , I see its switch fluorescence ratio listed as 1

Looking up GGGGGTGCTC , I see its switch fluorescence ratio listed as 1.01

Please look at the items below and tell me switch fluorescence ratio for each one, in order.
1. AGATGTCTAC
2. ATGTGGTTAC
3. GGGGCTGGGA
4. AAGTGCGACC
5. AATAGGGCCT
6. TTATAAGGGG
7. TAGGATTTTG

Marked response:
0.989
1.01
0.986
1.03
1.02
0.979
0.985

---

- Tested on: ATP;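 note: ATP exposure 15 min at 22 °C before imaging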
- Experiment: switch fluorescence ratio, 500 uM ATP over buffer (Cy3 cluster intensity, sum of 5 cycles each) (fold (ratio)); higher = stronger signal-on switching upon ATP binding; sequences stand for … in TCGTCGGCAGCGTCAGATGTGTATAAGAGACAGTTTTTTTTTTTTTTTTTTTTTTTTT…TC
- Details: aptamer strand: ATP DNA aptamer (quencher-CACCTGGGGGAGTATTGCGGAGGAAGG + anchor), 100 nM annealed; ATP concentration: 500 uM
So I've got a bunch of sequences here, and I need their switch fluorescence ratio values.
One number for each entry.

Sample answers from the record:
Looking up TAGCTTATAA , I see its switch fluorescence ratio listed as 1.08

Looking up CGATAATCGT , I see its switch fluorescence ratio listed as 1

Looking up TGTGGAAAAT , I see its switch fluorescence ratio listed as 1.03

Please look at the items below and tell me switch fluorescence ratio for each one, in order.
1. GCTTCTTTTG
2. TAATGTGTAA
3. TGCCGAGGTG
4. TTAGACTTTT
5. TGCTGGGGTA
6. ATGGCGAGGG

Marked response:
1: 1.09; 2: 0.994; 3: 1.38; 4: 1.03; 5: 0.99; 6: 0.989

Please look at the items below and tell me switch fluorescence ratio for each one, in order.
1. GAGGGGATAT
2. ACATGATTCG
3. CCAGCTGCGG
4. AAGTCACGGT
5. AGCCGGGTAT
6. CATGTCACGG

Marked response:
[1.38, 0.99, 1.01, 1.09, 1.01, 1.06]

---

- Tested on: ATP;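 note: ATP exposure 15 min at 22 °C before imaging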
- Experiment: switch fluorescence ratio, 500 uM ATP over buffer (Cy3 cluster intensity, sum of 5 cycles each) (fold (ratio)); higher = stronger signal-on switching upon ATP binding; sequences stand for … in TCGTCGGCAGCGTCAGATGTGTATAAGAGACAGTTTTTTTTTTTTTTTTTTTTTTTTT…TC
- Details: aptamer strand: ATP DNA aptamer (quencher-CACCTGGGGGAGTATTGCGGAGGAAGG + anchor), 100 nM annealed; ATP concentration: 500 uM
Label No if switch fluorescence ratio falls below 1; label Yes in every other case.

Example results:
Exam item: Test whether the sequence GTTTGTCTGC records switch fluorescence ratio of 1 or higher.
Marked response: No

Exam item: Test whether the sequence GAAGCTGCCA records switch fluorescence ratio of 1 or higher.
Marked response: Yes

Exam item: Test whether the sequence TTCGGCTCGA records switch fluorescence ratio of 1 or higher.
Marked response: Yes

Exam item: Test whether the sequence TCGGAGCAGG records switch fluorescence ratio of 1 or higher.
Marked response: Yes

Exam item: Test whether the sequence CGAGTAGAAT records switch fluorescence ratio of 1 or higher.
Marked response: Yes

Next:
Exam item: Test whether the sequence AAACTCTGCG records switch fluorescence ratio of 1 or higher.
Marked response: Yes

Exam item: Test whether the sequence AAGAGATACG records switch fluorescence ratio of 1 or higher.
Marked response: Yes

Exam item: Test whether the sequence CCTGGTGACG records switch fluorescence ratio of 1 or higher.
Marked response: Yes

Exam item: Test whether the sequence AGCTCTGGCC records switch fluorescence ratio of 1 or higher.
Marked response: No

Exam item: Test whether the sequence ATCACGATGG records switch fluorescence ratio of 1 or higher.
Marked response: Yes

Exam item: Test whether the sequence TACCCGGACA records switch fluorescence ratio of 1 or higher.
Marked response: Yes

Exam item: Test whether the sequence CAGGGTGGGG records switch fluorescence ratio of 1 or higher.
Marked response: Yes

---

So I've got a bunch of sequences here, and I need their switch fluorescence ratio values.
- Test system: ATP;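 note: ATP exposure 15 min at 22 °C before imaging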
- Experiment: switch fluorescence ratio, 500 uM ATP over buffer (Cy3 cluster intensity, sum of 5 cycles each) (fold (ratio)); higher = stronger signal-on switching upon ATP binding; sequences stand for … in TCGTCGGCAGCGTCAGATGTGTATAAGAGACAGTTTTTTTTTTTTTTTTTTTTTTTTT…TC
- Details: aptamer strand: ATP DNA aptamer (quencher-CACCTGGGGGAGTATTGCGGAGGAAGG + anchor), 100 nM annealed; ATP concentration: 500 uM
Numbers only.

Looking up CACCGGGCCT , I see its switch fluorescence ratio listed as 1.02

Looking up AAACAGCTCA , I see its switch fluorescence ratio listed as 0.994

Looking up TTTTTTATAA , I see its switch fluorescence ratio listed as 1.01

Looking up ACGTGCCGCA , I see its switch fluorescence ratio listed as 1.08

Please look at the items below and tell me switch fluorescence ratio for each one, in order.
1. TATAGTCTTT
2. CTGGGCCGGT
3. GGAGGGTTAT
4. ATTCACCCGC

Marked response:
[0.983, 1.02, 0.995, 1.48]

Please look at the items below and tell me switch fluorescence ratio for each one, in order.
1. TGTGTAGTTG
2. GGGTGCATGC
3. AGCTTGAGGT
4. AATTTGCGTT
5. GATATGTGGA
6. CGTGTGCCGA
7. GTTTTGGGAG

Marked response:
[0.982, 1.07, 0.994, 0.999, 0.995, 1.01, 1.02]

Please look at the items below and tell me switch fluorescence ratio for each one, in order.
1. ATTCGTGTTT
2. CAGGCTCTTT
3. GGTTCGTCGT
4. GATTGTACTA
5. TTAAAAATCA
6. GGAAACACAG
7. TTGCATTTTT
8. TGTTATAGCC

Marked response:
0.978
0.978
0.987
0.998
0.984
1.02
1.01
1.03

Please look at the items below and tell me switch fluorescence ratio for each one, in order.
1. ATACAAGTCT
2. TTAGTAAGGA
3. GTGGTGGGGA
4. TTTTCTTTTG
5. ATTTTGTATG
6. AGTGGTGGCT
7. GGAATAAGGT
8. GGCGCCGCGG

Marked response:
1: 1.03; 2: 1.01; 3: 1; 4: 1; 5: 0.976; 6: 1.04; 7: 1.01; 8: 0.994

---

- Test system: ATP;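 note: ATP exposure 15 min at 22 °C before imaging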
- Experiment: switch fluorescence ratio, 500 uM ATP over buffer (Cy3 cluster intensity, sum of 5 cycles each) (fold (ratio)); higher = stronger signal-on switching upon ATP binding; sequences stand for … in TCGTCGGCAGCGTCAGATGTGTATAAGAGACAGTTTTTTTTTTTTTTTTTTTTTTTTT…TC
- Details: aptamer strand: ATP DNA aptamer (quencher-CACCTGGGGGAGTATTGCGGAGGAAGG + anchor), 100 nM annealed; ATP concentration: 500 uM
Property Name: switch fluorescence ratio
Answers are plain numbers.

Hey, ATP data for AACCCCCGTT : switch fluorescence ratio came out at 1.07

Hey, ATP data for AGCCAGGTGG : switch fluorescence ratio came out at 1.27

Hey, ATP data for CGAAAAATGG : switch fluorescence ratio came out at 1.04

Hey, ATP data for AATAATAGCT : switch fluorescence ratio came out at 1.01

Please look at the items below and tell me switch fluorescence ratio for each one, in order.
1. GCTGGGACGT
2. GAAATATTAG
3. ATCAATGTCT
4. TCGGATTTGT
5. ATTAAATTTC
6. TAATGGTCGG
7. TTTAGGACGA
8. TGGGACCGGG

Marked response:
1. 1
2. 1.02
3. 0.994
4. 1.01
5. 0.987
6. 0.985
7. 0.981
8. 1

Please look at the items below and tell me switch fluorescence ratio for each one, in order.
1. CATTAAAGTA
2. ACAAGGATA
3. ATAGGATGTG
4. ATTAATCGCT
5. TAAGAGTATC
6. CTGGGTCACA
7. CGATTTAAGG
8. ATATTACGAA

Marked response:
1.1
1.01
1.01
0.993
1.01
1.02
0.995
1.02

Please look at the items below and tell me switch fluorescence ratio for each one, in order.
1. AGGTATTTG
2. TAATTCATCG
3. TTTCCCCTTT
4. TCGGTGACGG
5. CTTACGTGTG
6. TTTAGCGTCA
7. TAGCAATTTG

Marked response:
[0.986, 0.972, 1.08, 1.01, 1.03, 0.989, 1.05]

Please look at the items below and tell me switch fluorescence ratio for each one, in order.
1. ATATGCTAAG
2. TTTATTGGGA
3. CAAGTAGGGA
4. CAAGGTAGGG

Marked response:
1. 0.994
2. 1.07
3. 1.01
4. 0.968

From: the supplement of paper PMC10126150
